Every entry's value here was drawn from ChEMBL document CHEMBL1151083.

Recorded measurements of Ki, one per entry
# assayedTarget: 3-phosphoshikimate 1-carboxyvinyltransferase (Escherichia coli K-12, UniProt P0A6D3)
# Sequence (P0A6D3 whole entry): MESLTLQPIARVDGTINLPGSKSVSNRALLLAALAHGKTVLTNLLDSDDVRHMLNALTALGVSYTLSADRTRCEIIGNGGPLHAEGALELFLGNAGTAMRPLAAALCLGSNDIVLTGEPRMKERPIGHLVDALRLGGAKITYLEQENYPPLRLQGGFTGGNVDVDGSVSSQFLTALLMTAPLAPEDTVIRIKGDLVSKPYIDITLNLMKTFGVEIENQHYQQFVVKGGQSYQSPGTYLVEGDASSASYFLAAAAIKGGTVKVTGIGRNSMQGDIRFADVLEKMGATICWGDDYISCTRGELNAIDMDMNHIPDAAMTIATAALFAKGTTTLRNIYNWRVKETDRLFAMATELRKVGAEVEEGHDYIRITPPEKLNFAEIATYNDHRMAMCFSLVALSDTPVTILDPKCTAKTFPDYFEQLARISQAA
Please respond with the number in nM and leave the unit unwritten.

Q: Look up Ki: O=C(O)CN(O)CP(=O)(O)O
A: 2200

====

# assayedTarget: 3-phosphoshikimate 1-carboxyvinyltransferase (Escherichia coli K-12, UniProt P0A6D3)
# Sequence (P0A6D3 whole entry): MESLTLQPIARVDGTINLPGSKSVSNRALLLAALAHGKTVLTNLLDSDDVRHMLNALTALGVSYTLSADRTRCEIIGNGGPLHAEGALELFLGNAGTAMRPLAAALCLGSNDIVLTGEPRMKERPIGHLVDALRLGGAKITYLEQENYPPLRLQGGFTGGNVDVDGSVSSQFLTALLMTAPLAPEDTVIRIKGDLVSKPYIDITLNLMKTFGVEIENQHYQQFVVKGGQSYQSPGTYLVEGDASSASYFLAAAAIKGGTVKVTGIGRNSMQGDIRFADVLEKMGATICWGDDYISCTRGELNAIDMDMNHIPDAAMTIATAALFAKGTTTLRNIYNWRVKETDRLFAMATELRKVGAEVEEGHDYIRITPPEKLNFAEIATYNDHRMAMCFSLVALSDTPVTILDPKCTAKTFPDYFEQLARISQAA
quantity: IC50

Recorded IC50, per entry:
O=C(O)CNC[PH](=O)O    700 µM
CC(NCP(=O)(O)O)C(=O)O (stereo unspecified)    > 80 µM
COC(=O)CNCP(=O)(O)O    > 1 µM

Q: # input compound: NC(CC(=O)O)CP(=O)(O)O (stereo unspecified) ; wanted: its IC50
A: > 80 µM

Q: CN(CC(=O)O)CP(=O)(O)O , same question.
A: 150 µM

Q: Can you handle CC(NCC(=O)O)P(=O)(O)O (stereo unspecified) next?
A: > 80 µM

====

These records show Ki for UniProt:P0A6D3.
The answer is to be given in nM; state only the numeric part.

Examples from the recorded data:
CN(CC(=O)O)CP(=O)(O)O    78000
O=NN(CC(=O)O)CP(=O)(O)O    2200

Consider now this further compound.
Q: State the recorded Ki for this entry: NN(CC(=O)O)CP(=O)(O)O
A: 610
